- Test target: T1, Recombinant human CD123 SP1 ECD-His tag protein (human, UniProt P26951 20-305)
- T1 construct: bought from R&D Systems (#301-R3/CF); biotinylated for some assays; also called rhCD123 SP1; huCD123 ECD SP1
- T1 sequence: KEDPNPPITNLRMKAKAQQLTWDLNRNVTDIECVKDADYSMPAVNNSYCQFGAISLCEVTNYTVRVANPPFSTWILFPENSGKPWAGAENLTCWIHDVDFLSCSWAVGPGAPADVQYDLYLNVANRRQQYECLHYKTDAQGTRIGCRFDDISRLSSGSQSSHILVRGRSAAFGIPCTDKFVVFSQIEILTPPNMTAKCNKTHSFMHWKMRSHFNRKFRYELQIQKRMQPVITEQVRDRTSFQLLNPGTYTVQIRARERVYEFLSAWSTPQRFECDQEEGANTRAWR
- Procedure details: SPR Biacore 3000, captured Fab
Measured quantity: Kd (nM)
Use nM as the unit, but write only the number.

I have this binder here, I3RB121 (Fab, V domains shown, also called Fab of I3RB35) VH: QVQLVQSGAEVKKPGSSVKVSCKASGGTFSSYAISWVRQAPGQGLEWMGGIIPIFGTANYAQKFQGRVTITADESTSTAYMELSSLRSEDTAVYYCARHLFWDAGPLDYWGQGTLVTVSS VL: DIQMTQSPSSLSASVGDRVTITCRASQSISSYLNWYQQKPGKAPKLLIYAASSLQSGVPSRFSGSGSGTDFTLTISSLQPEDFATYYCQQYFSPPYTFGQGTKVEIK , and I need its recorded Kd.
6.3

Taken from patent US20160068605A1.
